# Protocol Conditions: in acetone, 303.15 K
Observation Type: solubility (mole fraction)
Answer as a number with no unit attached.

CC1Cc2ccccc2N1NC(=O)c1ccc(Cl)c(S(N)(=O)=O)c1 (stereo unspecified) has a reported solubility (mole fraction) of 0.036

* * *

# Protocol Conditions: in ethanol, 298.15 K
Observation Type: solubility (mole fraction)
Answer as a number with no unit attached.

CC1Cc2ccccc2N1NC(=O)c1ccc(Cl)c(S(N)(=O)=O)c1 (stereo unspecified) has a reported solubility (mole fraction) of 0.0116

* * *

# Protocol Conditions: in isopropanol, 318.15 K
Observation Type: solubility (mole fraction)
Answer as a number with no unit attached.

CC1Cc2ccccc2N1NC(=O)c1ccc(Cl)c(S(N)(=O)=O)c1 (stereo unspecified) has a reported solubility (mole fraction) of 0.0168
